Values compiled from patent US20200121677A1.

Can you tell me IC50 for the items I'm about to list?
tgt: human mGlu2 receptor (Homo sapiens)
testProtocol: [35S]GTPγS binding assay, mGluR2 negative allosteric modulation (membranes from CHO cells transfected with human mGlu2 receptor, glutamate ~EC80 60 μM)
testSettings: GTPγS - hmGluR2 anGT pIC50, membranes with human mGlu2 receptor, glutamate ~EC80 (60 μM); pIC50 = -log IC50 (M)
Remember to put the unit after the number in your answer.

[[record]]
molecule = "C[C@H]1CN(c2ccc(C(F)(F)F)cc2)C(=O)c2c(C(=O)Nc3ccncc3)cnn21 [compound 3]"
measuredvalue = "2.09e-09 M"


Give measured IC50 for every item shown.
1. Cc1cc(NC(=O)c2cnn3c2C(=O)N(c2ccc(C(F)(F)F)c(CF)c2)C[C@@H]3C)ccn1 [compound 54]
2. C[C@H]1CN(c2ccc(C(F)(F)F)c(Cl)c2)C(=O)c2c(C(=O)Nc3cncc(F)c3)cnn21 [compound 50]
3. Cc1cc(NC(=O)c2cnn3c2C(=O)N(c2ccc(C(F)(F)F)cc2)C[C@@H]3C)ccn1 [compound 5]

# output
1. 5.25e-09 M
2. 1.74e-09 M
3. 3.02e-09 M

====

Can you tell me Emax for the items I'm about to list?
tgt: human mGlu2 receptor (Homo sapiens, UniProt Q14416)
Sequence (Q14416 19-872): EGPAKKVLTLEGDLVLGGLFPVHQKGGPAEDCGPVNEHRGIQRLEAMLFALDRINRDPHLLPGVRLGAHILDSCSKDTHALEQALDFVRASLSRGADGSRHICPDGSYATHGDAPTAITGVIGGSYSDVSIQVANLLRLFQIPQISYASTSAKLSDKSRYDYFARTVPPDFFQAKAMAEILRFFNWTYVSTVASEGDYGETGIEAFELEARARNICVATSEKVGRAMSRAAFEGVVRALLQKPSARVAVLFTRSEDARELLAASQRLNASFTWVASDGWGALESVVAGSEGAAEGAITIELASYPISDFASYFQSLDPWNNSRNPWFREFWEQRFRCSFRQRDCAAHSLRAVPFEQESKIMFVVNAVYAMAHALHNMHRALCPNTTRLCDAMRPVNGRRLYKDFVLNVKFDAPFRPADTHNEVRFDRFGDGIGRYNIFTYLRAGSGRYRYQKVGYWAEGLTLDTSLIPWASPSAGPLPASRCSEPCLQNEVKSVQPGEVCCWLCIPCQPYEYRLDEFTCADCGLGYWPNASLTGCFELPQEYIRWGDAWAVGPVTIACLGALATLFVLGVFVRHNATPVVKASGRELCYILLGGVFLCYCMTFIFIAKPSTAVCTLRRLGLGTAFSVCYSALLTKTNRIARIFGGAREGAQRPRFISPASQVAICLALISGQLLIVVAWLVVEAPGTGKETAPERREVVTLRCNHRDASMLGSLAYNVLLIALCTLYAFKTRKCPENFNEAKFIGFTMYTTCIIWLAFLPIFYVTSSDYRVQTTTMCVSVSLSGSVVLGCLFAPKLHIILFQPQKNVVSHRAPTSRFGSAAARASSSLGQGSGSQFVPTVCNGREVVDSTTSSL
testProtocol: [35S]GTPγS binding assay, mGluR2 negative allosteric modulation (membranes from CHO cells transfected with human mGlu2 receptor, glutamate ~EC80 60 μM);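 further: membranes preincubated 30 min at 30 °C with compound plus glutamate, then [35S]GTPγS (0.1 nM) incorporation measured over another 30 min at 30 °C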
testSettings: read-out: GTPγS - hmGluR2 anGT Emax, relative maximal effect: maximal % inhibition relative to the control glutamate response
Numbers only, in %.

[[record]]
molecule = "Cc1ccncc1NC(=O)c1cnn2c1C(=O)N(c1ccc(C(F)(F)F)c(C)c1)C[C@@H]2C [compound 38]"
tgt = "human mGlu2 receptor (Homo sapiens, UniProt Q14416)"
measuredvalue = 108

[[record]]
molecule = "C[C@H]1CN(c2ccc(Cl)cc2)C(=O)c2c(C(=O)Nc3cnccn3)cnn21 [compound 162]"
tgt = "human mGlu2 receptor (Homo sapiens, UniProt Q14416)"
measuredvalue = 109

[[record]]
molecule = "C[C@H]1CN(c2ccc(C(F)(F)F)cc2)C(=O)c2c(C(=O)Nc3ccccn3)cnn21 [compound 9]"
tgt = "human mGlu2 receptor (Homo sapiens, UniProt Q14416)"
measuredvalue = 103

[[record]]
molecule = "C[C@H]1CN(c2ccc(Cl)c(Cl)c2)C(=O)c2c(C(=O)Nc3cncc(F)n3)cnn21 [compound 146]"
tgt = "human mGlu2 receptor (Homo sapiens, UniProt Q14416)"
measuredvalue = 128

[[record]]
molecule = "C[C@H]1CN(c2ccc(Cl)c(Cl)c2)C(=O)c2c(C(=O)Nc3cnccn3)cnn21 [compound 116]"
tgt = "human mGlu2 receptor (Homo sapiens, UniProt Q14416)"
measuredvalue = 109

[[record]]
molecule = "COc1cc(N2C[C@H](C)n3ncc(C(=O)Nc4cncc(F)c4)c3C2=O)ccc1C(F)(F)F [compound 117]"
tgt = "human mGlu2 receptor (Homo sapiens, UniProt Q14416)"
measuredvalue = 105

[[record]]
molecule = "COc1cncc(NC(=O)c2cnn3c2C(=O)N(c2ccc(C(F)(F)F)c(Cl)c2)C[C@@H]3C)c1C [compound 127]"
tgt = "human mGlu2 receptor (Homo sapiens, UniProt Q14416)"
measuredvalue = 108

[[record]]
molecule = "C[C@H]1CN(c2ccc(C(F)(F)F)cc2)C(=O)c2c(C(=O)NCC3CC3)cnn21 [compound 60]"
tgt = "human mGlu2 receptor (Homo sapiens, UniProt Q14416)"
measuredvalue = 103

[[record]]
molecule = "C[C@H]1CN(c2ccc(C(F)(F)F)c(F)c2)C(=O)c2c(C(=O)Nc3cncc(F)c3)cnn21 [compound 24]"
tgt = "human mGlu2 receptor (Homo sapiens, UniProt Q14416)"
measuredvalue = 107

[[record]]
molecule = "C[C@H]1CN(c2ccc(C(F)(F)F)cc2)C(=O)c2c(C(=O)Nc3cncc(F)n3)cnn21 [compound 145]"
tgt = "human mGlu2 receptor (Homo sapiens, UniProt Q14416)"
measuredvalue = 126


Give measured Emax for every item shown.
1. COc1ccc(NC(=O)c2cnn3c2C(=O)N(c2ccc(C(F)(F)F)c(OC)n2)C[C@@H]3C)cc1 [compound 121]
2. C[C@H]1CN(c2ccc(Cl)c(Cl)c2)C(=O)c2c(C(=O)Nc3ccc(F)cn3)cnn21 [compound 98]
3. COc1cc(N2C[C@H](C)n3ncc(C(=O)Nc4cnccc4C)c3C2=O)ccc1C(F)(F)F [compound 32]

# output
1. 109
2. 107
3. 111
